Entries and their RAMPO Score values follow.
- target entity: T1, His-tagged P3028 peptide (PGE73) (human)
- T1 construct: also called His-tag-P3028; not shown: His-tag
- T1 peptide: VFDEFKPLVEEPQNLIK
- test description: PEPSCAN ELISA; peptide on card, His-tagged P3028 in solution;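 note: bound protein detected by peroxidase colour with ABTS substrate, imaged on the peptide card by CCD camera at 405 nm, rampo units being raw OD405 readings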

binder: KKLDTFFVKLSLDTER (P28R variant on PEPSCAN card) [SEQ ID NO: 575]
RAMPO Score (rampo units): 112

binder: KKLDTFFVKLSLFTEQ (P28R variant on PEPSCAN card) [SEQ ID NO: 573]
RAMPO Score (rampo units): 133

binder: KKLDTFFVKLSLFTNR (P28R variant on PEPSCAN card) [SEQ ID NO: 566]
RAMPO Score (rampo units): 161

binder: KKLDTFFVKLSLFTSR (P28R variant on PEPSCAN card) [SEQ ID NO: 563]
RAMPO Score (rampo units): 165

binder: KKLDTFFVGLSLFTER (P28R variant on PEPSCAN card) [SEQ ID NO: 98]
RAMPO Score (rampo units): 188

binder: KKLDTFFVKLSLFTEG (P28R variant on PEPSCAN card) [SEQ ID NO: 543]
RAMPO Score (rampo units): 218

binder: KKLDTFFVKLSLETER (P28R variant on PEPSCAN card) [SEQ ID NO: 579]
RAMPO Score (rampo units): 98
